// provenance: the nanobody polyreactivity screen of Harvey et al. (2022)

- test: yeast display, Sf9 membrane polyspecificity reagent, FACS + sequencing; frameworks hold sequencing errors
quantity-name: polyreactivity (PSR sort gate)

primary_sequence=QVQLVESGGGLVQAGGSLRLSCAASGRIFSLYAMGWYRQAPGKERELVAAISWSGGTTYYADSVKGRFTISRDNAKNTVYLQMNSLKPEDTAVYYCAADTGTGLDWGQGSQVTVSS quantity_name="polyreactivity (PSR sort gate)" reported_measurement="high polyreactivity"
primary_sequence=QDQLVESGGGLVQAGGSLRLSCAASGFTFSAYAMGWYRQAPGKERELVAAISTRGGSTRYADSVKGRFTISRDNAKNTVYLQMNSLKPEDTAVYYCAVEVYSYLYYETYPTEYEYWGQGTQVTVSS quantity_name="polyreactivity (PSR sort gate)" reported_measurement="high polyreactivity"
primary_sequence=QVQLVEAGGGLVQAGGSLRLSCAASAFTFSPTAMGWYRQAPGKERELGAAIDWSGDRTYYADSVKGRFTISRAHAKNTVYLQMNSLKPEDTGVYYCNVVRRSPGDYSYYYWGQGSQVTVSS quantity_name="polyreactivity (PSR sort gate)" reported_measurement="low polyreactivity"
primary_sequence=QVQLVESGGGLVQAGGSLRLSCAAYGFTFAAYSMGWYRQAPGKEREFVAAITSRDGTTYYADSVKGRFTISGYNAKNTVYLQMNSLKPEDTAVFYCAKDHFNWGVSEVDSWRQGTQVTVSS quantity_name="polyreactivity (PSR sort gate)" reported_measurement="low polyreactivity"
primary_sequence=QVQLVESGGGLVQAGGSLRLSCAASGRIFYLYAMGWYRQAPGKERELVASINSGDSTHYADSVKGRFTISRDNAKNTVYLQMNSLKPEDTAVYYCATRRYTRSRWYDYWGQGTQVTVSS quantity_name="polyreactivity (PSR sort gate)" reported_measurement="low polyreactivity"
primary_sequence=QVQLVESGGGLVQAGGSLRLSCAASGSIFGPYVKGWYRQAPGTERELVASITSSGGSTYYADTVKGRFTISRDNAKNTVYIQMNSLKPEDTAVYYCNAVRFTPTNSHRYYWGQGTQVTVSS quantity_name="polyreactivity (PSR sort gate)" reported_measurement="high polyreactivity"
primary_sequence=QVQLVESGGGLVQAGGSLRLSCAASGSTFPRYAMGWYRQAPGKERELVAAISGRGGSTYYADSVKGRFTISRDYAKNTVYLQMNSLKPEDTAVYYCNAYRRYYTMYYWGQGTQVTVSS quantity_name="polyreactivity (PSR sort gate)" reported_measurement="high polyreactivity"
primary_sequence=QVQLVESGGGLVQAGGSLRLSCAASGRTFAIDAMGWYRQAPGKEREFVAAISWSGGDTYYADSVKGRFTISRDNAKNTVYFQMNRLKPEDTAVYYSAGRDNDYEGRDLQDELDYWGQGTQVTVSS quantity_name="polyreactivity (PSR sort gate)" reported_measurement="low polyreactivity"
primary_sequence=QVQLVESGGGLVQAGGSLRLSCAASGSILYLNAMGWYRQAPGKERELVAAITWSGGSTSYADSVKGRFTISRDNAKNTVYLQMISLKPEDTAVYYCAAVRRGYGGVYYAGGYWGQGTQVTVSS quantity_name="polyreactivity (PSR sort gate)" reported_measurement="low polyreactivity"
primary_sequence=QVQLVESGGGLVQAGGSLRLSCAASGRIFTTNAMGWYRQAPGKERELVASISKSGGSTYYADSVKGRFTISRDTAKNTVYLQMNSLKPEDTAVYYCAASSYSTSYIRGDYWGQGTQVTVSS quantity_name="polyreactivity (PSR sort gate)" reported_measurement="low polyreactivity"
primary_sequence=QVQLVESGGGLVQAGGSLRLSCAASGSTFAGYTLGWYRQAPGKERELVAAITSRGGRTYYADSVKGRFTISRDHAKNTVYLQMNSLKPEDTAVYYCAAVSRYYAALMYYWGQGTQVTVSS quantity_name="polyreactivity (PSR sort gate)" reported_measurement="high polyreactivity"

---

- test: yeast display, Sf9 membrane polyspecificity reagent, FACS + sequencing; frameworks hold sequencing errors
quantity-name: polyreactivity (PSR sort gate)

primary_sequence=QVQLVESGGGLVQAGGSLRLSCAASGFTFGSYAMGWYRPAPGKERELVAGISRGGSTNYADSVKGRFTISRDNAKNTVYLQMNSLKPEDTAVYYCAAYVIGPDQFIYDYWGQGTQVTVSS reported_measurement="low polyreactivity"
primary_sequence=QVQLVESGGGLVQAGGSLRLSCAASGSTFAFNTKGWYRQAPGKERELVAGISSNGGRTYYADSVKGRFTISRDNAKNTVYLQMNSLKPEDTAVYYCNALRRYVSVRPTKSDDWGQGTQVTVSS reported_measurement="high polyreactivity"
primary_sequence=QVQLVESGGGLVQEGGSLRLSCAASGSIFFYYAMGWYRPAPGKERELVAAIRSGTSTNYADSVKGRFTISLDNAKNTVYLQMNSLKPEDTAVYYCNKDTDWSWSAITSPIFDYWGQGTQVTVSS reported_measurement="low polyreactivity"
primary_sequence=QVQLVESGGRLVQAGGSLRLSCAASGLTITRNAMGWYRQAPGKERELVAAISWSGGSTYYADSVKGRFTISRDNAKNTVYLQMNSLKPEDTAVYDCAAEPYKQYTGYYYSGFEYWGQGTQVTVSS reported_measurement="high polyreactivity"
primary_sequence=QVQLVESGGGLVQAGGSLRLSCAASGITFWPYAMGWYRQAPGKERELVAAISFIDGSTSYADSVKGRFTISRDNAKNTVYLQMNSLKPEDTAVYYCAAVIPGPSIWLYYYWGQGTQVTVSS reported_measurement="low polyreactivity"

---

- test: yeast display, Sf9 membrane polyspecificity reagent, FACS + sequencing; frameworks hold sequencing errors
quantity-name: polyreactivity (PSR sort gate)

primary_sequence=QDQLVESGGGLVQAGGSLRLSCAASGSIFPDYTMGWYRQAPGKERELVPGNTWNGGGTYYADSVKGRITISRDNAKNTVYLQMYSLKPEDTAVYYCAAVWSGSRSTGAWGPYNYWGQGTQVTVSS reported_measurement="low polyreactivity"
primary_sequence=QVQLVESGGGLVQAGGSLRLSCAASGSIFEYNTMGWYRQAPGKERELVATISWSGDSTYYADSVKGRFTISRDNAKNTVYLQMNSLKPEDTAVYYCAAQRGAPVDGKSDYWGQGTQVIVSS reported_measurement="low polyreactivity"
primary_sequence=QVQLVESGGGLVQAGGSLRLSCAASGRTFVANVKGWYRQAPGKERELVAGISTRGGRTYYADSVKGRFTISRDNAKNTVYLQMNSLKPEDTAVYYCAVRHYRDSTPRGAYQRYDYWGQGTQVTVSS reported_measurement="low polyreactivity"
primary_sequence=QVQLVESGGGLVQAGGSLRLSCAASGRIFERYAMGWYRQAPGKERELVAGISISGGGTYYADSVKGRFTISRDIAKNTVYFQMNSLKPEDTAVYYCAATFPREEYGYWGQGTQVTVSS reported_measurement="low polyreactivity"
primary_sequence=QVQLVESGGGLVQAGGSLRLSCAASGRIFYGYAMGWYRQAPGKERELVAAITWIDGSTYYADSVKGRFTISRDNAKNTVYLQMNSLKPEDTAVYFCNKTWYGDSGTRTYWGQVTQVTVSS reported_measurement="low polyreactivity"

---

- test: yeast display, Sf9 membrane polyspecificity reagent, FACS + sequencing; frameworks hold sequencing errors
quantity-name: polyreactivity (PSR sort gate)

primary_sequence=QVQLVESGGGLVQGGGSLRLSCAASGGTIGRNAMGWYRQAPGKERELVANITRRGGSTYYADSVKGRFTISRDNAKNTVYLQMNSLKAEDTAVYYCAARDVYRGGLFDYWGQGTQVSVSS quantity_name="polyreactivity (PSR sort gate)" reported_measurement="high polyreactivity"
primary_sequence=QVQLVESGGGLVQAGGSLRLSCAASGSIFSSYAMGWYRQAPGKEREVVASINSAGSTNYADSVKGRFTISRDNAKNTVYLQMNSLKPDDTAVYYCAASGGTWVNYRPEYDYWGQGTQVTVSS quantity_name="polyreactivity (PSR sort gate)" reported_measurement="low polyreactivity"
primary_sequence=QVQLVESGGGLVQAGGSLRLSCAASGRIFYYYAMGWYRQAPGKERELVAAISWSGGSTYYADSVKGRFTISRDNAKNTVYLQMNSLKPEDTAVYYCAAESRKYREYYFWGQGTQVTVSS quantity_name="polyreactivity (PSR sort gate)" reported_measurement="high polyreactivity"
primary_sequence=QDQLVESGGGLVQAGGSHRLSCAASGFISDKNAMGWYRQAPRKERELVAAISQRGDRTYYADSVKGRFTISRDNAKNTVYLQMNSLKPEDTAVYYCGYLVRYHHLRYWGQGTQVTVSS quantity_name="polyreactivity (PSR sort gate)" reported_measurement="high polyreactivity"
primary_sequence=HVQLVESGGGLVQAGGSLRLSCAASGIIFWTYTMGWYRQAPGKERELVGAISSGGSTKYADSVKGRFTISRDNAKNTVYLQMNSLKPADTAVYYCNAEFAPWGSAYGHDQYDYWGQGTQVTVSS quantity_name="polyreactivity (PSR sort gate)" reported_measurement="low polyreactivity"
primary_sequence=QVQLVESWGGLVQAGGSLRLSCAASGIIFQNYDMGWYRQARGKERELVAAITGSGGSTYYADSVKGRFTISRDNAKNTVYLQMNSLKPEDTAVYYCNAVWEYYGKSDYWGQGTQVTVSS quantity_name="polyreactivity (PSR sort gate)" reported_measurement="low polyreactivity"
primary_sequence=QVQLVESGGGLVQAGGSLRLSCADSGRTFSYNLMGWYSQAPGKESEVVAAISRRGGSTYYADSVKGRFTISRDNAKNTVYLQMNSLKPEDTAVYYCNAVSPSPGGGYWGQGSQVTVSS quantity_name="polyreactivity (PSR sort gate)" reported_measurement="high polyreactivity"
primary_sequence=QVQLQESGGGLVQVGGSLRLSCAASGTIFIYGFLGWNRQAPGKERDLVASINLGGITNYADSVKGRFTISRDNAKITVYLQMNSLKPEDTAVYYCAADGGESAWGGYDYWGQGTQGTVSS quantity_name="polyreactivity (PSR sort gate)" reported_measurement="low polyreactivity"
primary_sequence=QVQLVESGGGLVQAGGSPRLSCAASGIIFQHNAMGWYRQAPGKERELVAAISSNGGRTFYADSVKGRFTISRDNAKNTVYLQMNSLKPEDTAVYYCAADRPAYGVGYWGQGTQVTVSS quantity_name="polyreactivity (PSR sort gate)" reported_measurement="high polyreactivity"
primary_sequence=QVQLVESGGGLVQAGGGLRLSCAASGFTFTKYAMGLYRQAPGKERELVAAITSGTSTYYADSVKGRFTISRDNAKNTVYLQMNSLKPEDTAVYYCAAPLYGRYSYGYWGQGTQVTVSS quantity_name="polyreactivity (PSR sort gate)" reported_measurement="high polyreactivity"
primary_sequence=QVQLVESGGGLVQAGGSLRLSCAASGSTFRKYAMGWYRQAPGKEREFVAAITWSTGTTYYADSVKGRFTISRDNAQNTVYLQMNSLKPEDTAVYYCSADSKPPHELYESIEHESWGQGTQVTVSA quantity_name="polyreactivity (PSR sort gate)" reported_measurement="low polyreactivity"
